Species on record: Rattus norvegicus
assay.method.text: Open TG-GATES - Regimen: Daily Repeat
Type: toxicity, organism-based, Sprague-Dawley
Design: regimen Daily Repeat, gender Male, age 6 weeks
experimental.setup: in vivo, po, 0 mg/kg, […], tissue Plasma, route gavage, dose level Control, time 28 day
reported.metric: BUN (mg/dL)
Respond numerically; units are mg/dL and should not be typed.

What measured BUN goes with C[C@H](CS)C(=O)N1CCC[C@H]1C(=O)O [CAPTOPRIL] ?
20.4

What measured BUN goes with CO[C@H]1/C=C/O[C@@]2(C)Oc3c(C)c(O)c4c(O)c(c(/C=N/N5CCN(C)CC5)c(O)c4c3C2=O)NC(=O)/C(C)=C\C=C\[C@H](C)[C@H](O)[C@@H](C)[C@@H](O)[C@@H](C)[C@H](OC(C)=O)[C@@H]1C [RIFAMPIN] ?
20.2

What measured BUN goes with COc1ccc(Cc2nccc3cc(OC)c(OC)cc23)cc1OC [PAPAVERINE] ?
20

====

Organism: Rattus norvegicus
assay.method.text: Open TG-GATES - Regimen: Single
Type: toxicity, organism-based, Sprague-Dawley
Set-up: regimen Single, gender Male, age 6 weeks
experimental.setup: in vivo, po, 0 mg/kg, 24 h, tissue Plasma, route gavage, dose level Control
reported.metric: TP (g/dL)
Respond numerically; units are g/dL and should not be typed.

What measured TP goes with C[C@H](CS)C(=O)N1CCC[C@H]1C(=O)O ?
5.7

What measured TP goes with COc1ccc(Cc2nccc3cc(OC)c(OC)cc23)cc1OC ?
5.3

What measured TP goes with COc1cc2c(c3oc(=O)c4c(c13)CCC4=O)[C@@H]1C=CO[C@@H]1O2 ?
5.7

What measured TP goes with NC(=O)N/N=C/c1ccc([N+](=O)[O-])o1 ?
5.4

====

Species on record: Rattus norvegicus
assay.method.text: Open TG-GATES - Regimen: Daily Repeat
Format: toxicity, organism-based, Sprague-Dawley
Parameters: regimen Daily Repeat, gender Male, age 6 weeks
experimental.setup: in vivo, po, 0 mg/kg, […], tissue Plasma, route gavage, dose level Control, time 14 day
TP vs 6 g/dL: less than gives Condition met; not less than gives Condition not met.

Please state whether TP is below 6 g/dL for CSc1ccc2c(c1)N(CCC1CCCCN1C)c1ccccc1S2 (centres undefined) [THIORIDAZINE]
Condition not met

Please state whether TP is below 6 g/dL for COc1ccc2c(c1)c(CC(=O)O)c(C)n2C(=O)c1ccc(Cl)cc1 [INDOMETHACIN]
Condition not met

Please state whether TP is below 6 g/dL for NC(=O)N/N=C/c1ccc([N+](=O)[O-])o1 [NITROFURAZONE]
Condition met

====

Species: Rattus norvegicus
assay.method.text: Open TG-GATES - Regimen: Daily Repeat
Type: toxicity, organism-based, Sprague-Dawley
Parameters: regimen Daily Repeat, gender Male, age 6 weeks
experimental.setup: in vivo, po, 0 mg/kg, […], tissue Blood, route gavage, dose level Control, time 14 day
reported.metric: RBC (x10_4/ul)
Respond numerically; units are x10_4/ul and should not be typed.

What measured RBC goes with O=C(O)c1cc(/N=N/c2ccc(S(=O)(=O)Nc3ccccn3)cc2)ccc1O [SULFASALAZINE] ?
703.6

What measured RBC goes with CCc1cc(C(N)=S)ccn1 [ETHIONAMIDE] ?
718.8

What measured RBC goes with CC(=O)Oc1ccccc1C(=O)O [ASPIRIN] ?
681.6

What measured RBC goes with CSc1ccc2c(c1)N(CCC1CCCCN1C)c1ccccc1S2 (stereo unspecified) [THIORIDAZINE] ?
697.6

What measured RBC goes with Cn1c(=O)c2[nH]cnc2n(C)c1=O.O [THEOPHYLLINE] ?
691.8

What measured RBC goes with COc1ccc(Cc2nccc3cc(OC)c(OC)cc23)cc1OC [PAPAVERINE] ?
707
